target.or.system: D(1A) dopamine receptor (Homo sapiens) (UniProt P21728)
Sequence (P21728 whole entry): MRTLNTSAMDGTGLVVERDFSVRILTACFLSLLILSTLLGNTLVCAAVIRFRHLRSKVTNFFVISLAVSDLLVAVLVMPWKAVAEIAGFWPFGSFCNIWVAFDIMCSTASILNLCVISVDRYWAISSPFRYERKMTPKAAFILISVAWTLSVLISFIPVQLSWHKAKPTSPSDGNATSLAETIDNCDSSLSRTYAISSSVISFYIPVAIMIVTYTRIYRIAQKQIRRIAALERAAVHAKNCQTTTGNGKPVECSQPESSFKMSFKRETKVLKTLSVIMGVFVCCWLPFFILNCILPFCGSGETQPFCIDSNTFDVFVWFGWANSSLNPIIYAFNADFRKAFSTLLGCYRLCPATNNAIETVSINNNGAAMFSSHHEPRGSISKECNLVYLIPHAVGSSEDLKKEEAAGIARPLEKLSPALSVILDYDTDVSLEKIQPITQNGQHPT
assay.protocol: Antagonist activity at dopamine D1 receptor transfected in mouse L(tk-) cells assessed as inhibition of SKF-induced stimulation of forskolin-induced cAMP levels
Type: functional, cell-based
Calls of active or inactive are those of the source. No cut-off for these calls is given here.
measurement.type: Activity

CC(C)[C@H](NC(=O)[C@H](Cc1ccc([N+](=O)[O-])cc1)NC(=O)[C@@H]1C=C2c3cccc4[nH]cc(c34)C[C@H]2N(C)C1)C(=O)N1c2ccccc2C[C@H]1C(N)=O | inactive
CC(C)[C@H](NC(=O)[C@H](CCC1CCCCC1)NC(=O)[C@@H]1C=C2c3cccc4[nH]cc(c34)C[C@H]2N(C)C1)C(=O)N1CCC[C@H]1C(N)=O | inactive
CC(C)[C@H](NC(=O)[C@@H]1C=C2c3cccc4[nH]cc(c34)C[C@H]2N(C)C1)C(=O)N[C@@H](Cc1ccc(F)cc1)C(=O)N1CCC[C@H]1C(N)=O | inactive
CC(C)[C@H](NC(=O)[C@@H]1C=C2c3cccc4[nH]cc(c34)C[C@H]2N(C)C1)C(=O)N[C@@H](Cc1ccc([N+](=O)[O-])cc1)C(=O)N1CCC[C@H]1C(N)=O | inactive
CN1C[C@H](C(=O)N[C@@H](Cc2ccc([N+](=O)[O-])cc2)C(=O)N[C@@H](Cc2ccc(F)cc2)C(=O)N2CCCC(C(N)=O)C2)C=C2c3cccc4[nH]cc(c34)C[C@H]21 (stereo partly specified) | inactive

Now look at this entry.
D(1A) dopamine receptor (Homo sapiens) (UniProt P21728) data for CC(C)[C@H](NC(=O)[C@@H]1C=C2c3cccc4[nH]cc(c34)C[C@H]2N(C)C1)C(=O)N[C@@H](CCC1CCCCC1)C(=O)N1c2ccccc2C[C@H]1C(N)=O ; its Activity: inactive

---

target.or.system: Adenosine receptor A1 (Homo sapiens) (UniProt P30542)
Sequence (P30542 whole entry): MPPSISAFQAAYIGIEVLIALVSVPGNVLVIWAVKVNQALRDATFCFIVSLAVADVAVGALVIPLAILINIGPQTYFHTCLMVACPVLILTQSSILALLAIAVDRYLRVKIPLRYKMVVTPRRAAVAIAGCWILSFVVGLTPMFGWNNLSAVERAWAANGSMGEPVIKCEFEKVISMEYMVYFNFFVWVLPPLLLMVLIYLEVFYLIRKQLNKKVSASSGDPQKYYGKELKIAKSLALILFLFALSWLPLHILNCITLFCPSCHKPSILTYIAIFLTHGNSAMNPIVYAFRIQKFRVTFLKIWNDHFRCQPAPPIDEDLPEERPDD
assay.protocol: Antagonist activity at adenosine A1 receptor transfected in mouse L(tk-) cells assessed as inhibition of R-PIA-induced decrease in forskolin-induced cAMP levels
Format: functional, cell-based
Activity calls are given as the source filed them. No cut-off for these calls is given here.
measurement.type: Activity

CC(C)[C@H](NC(=O)[C@H](CCC1CCCCC1)NC(=O)[C@@H]1C=C2c3cccc4[nH]cc(c34)C[C@H]2N(C)C1)C(=O)N1CCC[C@H]1C(N)=O | Active
CC(C)[C@H](NC(=O)[C@@H]1C=C2c3cccc4[nH]cc(c34)C[C@H]2N(C)C1)C(=O)N[C@@H](CCC1CCCCC1)C(=O)N1c2ccccc2C[C@H]1C(N)=O | Active
CC(C)[C@H](NC(=O)[C@H](Cc1ccc([N+](=O)[O-])cc1)NC(=O)[C@@H]1C=C2c3cccc4[nH]cc(c34)C[C@H]2N(C)C1)C(=O)N1c2ccccc2C[C@H]1C(N)=O | Active

---

target.or.system: Adenosine receptor A2a (Homo sapiens, UniProt P29274)
Sequence (P29274 whole entry): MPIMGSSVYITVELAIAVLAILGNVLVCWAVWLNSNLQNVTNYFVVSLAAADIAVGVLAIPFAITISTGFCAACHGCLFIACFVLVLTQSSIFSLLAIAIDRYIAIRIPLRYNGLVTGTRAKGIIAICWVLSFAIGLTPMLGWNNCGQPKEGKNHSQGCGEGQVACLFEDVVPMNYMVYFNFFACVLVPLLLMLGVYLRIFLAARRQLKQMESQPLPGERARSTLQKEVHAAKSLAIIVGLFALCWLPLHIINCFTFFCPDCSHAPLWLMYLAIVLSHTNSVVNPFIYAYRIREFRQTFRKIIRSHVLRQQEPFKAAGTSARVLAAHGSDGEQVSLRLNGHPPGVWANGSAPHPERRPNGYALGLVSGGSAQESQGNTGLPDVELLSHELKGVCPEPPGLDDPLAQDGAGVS
assay.protocol: Antagonist activity at adenosine A2A receptor in SH-SY5Y cells assessed as CGS-induced intracellular cAMP production at 50 uM
Assay type: functional, cell-based
Calls of active or inactive are those of the source. No cut-off for these calls is given here.
measurement.type: Activity

Some solved entries appear below for comparison.
CC(C)[C@H](NC(=O)[C@@H]1C=C2c3cccc4[nH]cc(c34)C[C@H]2N(C)C1)C(=O)N[C@@H](CCC1CCCCC1)C(=O)N1CCCC(C(N)=O)C1 (stereo not given in full) | Active
CC(C)[C@H](NC(=O)[C@H]1C=C2c3cccc4[nH]cc(c34)C[C@H]2N(C)C1)C(=O)N[C@@H](Cc1ccc([N+](=O)[O-])cc1)C(=O)N1CCC[C@H]1C(N)=O | Active
CN1C[C@H](C(=O)N[C@@H](Cc2ccc([N+](=O)[O-])cc2)C(=O)N[C@@H](Cc2ccc(F)cc2)C(=O)N2CCCC(C(N)=O)C2)C=C2c3cccc4[nH]cc(c34)C[C@H]21 (stereo not given in full) | Active
CC(C)[C@H](NC(=O)[C@H](CCC1CCCCC1)NC(=O)[C@@H]1C=C2c3cccc4[nH]cc(c34)C[C@H]2N(C)C1)C(=O)N1CCC[C@H]1C(N)=O | Active

Pending molecule:
Activity measured on CC(C)[C@H](NC(=O)[C@@H]1C=C2c3cccc4[nH]cc(c34)C[C@H]2N(C)C1)C(=O)N[C@@H](Cc1ccc([N+](=O)[O-])cc1)C(=O)N1CCC[C@H]1C(N)=O = Active

Origin of the recorded values: ChEMBL document CHEMBL1145382
